- testDescription: Toxicokinetic study of AAI after single oral administration (plasma, UPLC-QQQ-MS/MS, NCA)
- Type: in vivo, F344 rats
- conditionLabel: both sexes, F344, rat, plasma, po, 30 mg/kg, medium-dose (30 mg/kg), individual pooled profiles (animal pairs), Table S4; read-out: tmax
recordedMetric: tmax (min)
Please state the figure in min; there is no need to write the unit.

[in] I would be grateful if you could share the reported tmax for COc1cccc2c1cc([N+](=O)[O-])c1c(C(=O)O)cc3c(c12)OCO3 [AAI, Aristolochic acid I] .
[out] 30

---

- testDescription: Toxicokinetic study of AAI after single oral administration (plasma, UPLC-QQQ-MS/MS, NCA)
- Assay type: in vivo, F344 rats
- conditionLabel: both sexes, F344, rat, plasma, po, 10 mg/kg, low-dose (10 mg/kg oral), 14 h, individual rats M104,M105,M106,F104,F105,F106; below LLOQ set to zero
- Protocol: For toxicokinetic study, forty-eight […] F344 rats (specific pathogen-free grade) were enrolled in the study, with equal numbers of males and females. All rats were purchased from Charles River Laboratory (Raleigh, NC, USA). […] Rat plasma samples were prepared as follows: Blood was centrifuged at 13,200 rpm for 10 min. […] After vortexing for 2 min and centrifugation for 10 min at 13,200 rpm, the supernatant was used as study samples for quantitative analysis. […]
recordedMetric: concentration at 14 h (ng/mL)
Please state the figure in ng/mL; there is no need to write the unit.

[in] I would be grateful if you could share the reported concentration at 14 h for COc1cccc2c1cc([N+](=O)[O-])c1c(C(=O)O)cc3c(c12)OCO3 .
[out] 0
